Each entry below lists one item and its recorded Day 3 content (%) value.
Experiment: Evaluation of dissolution stability (content change on storage in dissolved state)
Format: physicochemical
Details: 1 mg/1 ml dissolved state, 40° C. and RH 75%, day 3
Where no end group is shown, it is not given here. [ ]: non-standard residue; d: D form. Pro(4,4-F2) = O=C(O)[C@@H]1CC(F)(F)CN1; Pro(4,4-Me2) = CC1(C)CN[C@H](C(=O)O)C1; Hyp = O=C(O)[C@@H]1C[C@@H](O)CN1; dHyp = O=C(O)[C@H]1C[C@H](O)CN1; Aib = CC(C)(N)C(=O)O
Unit % implied. Number only.

{"substance": "Hyp-Gly-Gln-Glu-Leu-Leu ([Hyp]GQELL) [Example 88]", "unit symbol": "%", "Day 3 content (%)": 98.07}

Consider the substance 4,4-difluoro-Pro-Gly-Gln-Asp-Gly-Leu-Ala ([Pro(4,4-F2)]GQDGLA) [Example 53] and give its measured Day 3 content (%).
76.02

Consider the substance 4,4-dimethyl Pro-Gly-Gln-Asp-Gly-Leu ([Pro(4,4-Me2)]GQDGL) [Example 56] and give its measured Day 3 content (%).
79.98

Consider the substance D Hyp-Gly-Gln-Asp-Gly-Leu ([dHyp]GQDGL) [Example 45] and give its measured Day 3 content (%).
69.07

Consider the substance Hyp-Gly-Gln-Aib-Gly-Leu ([Hyp]GQ[Aib]GL) [Example 84] and give its measured Day 3 content (%).
97.29
